target: Organic anion transporter 1 (hOAT1) (Homo sapiens); experiment: competitive inhibition of 6-carboxyfluorescein uptake in hOAT1-overexpressing HEK293 cells
Sequence (Q4U2R8 whole entry): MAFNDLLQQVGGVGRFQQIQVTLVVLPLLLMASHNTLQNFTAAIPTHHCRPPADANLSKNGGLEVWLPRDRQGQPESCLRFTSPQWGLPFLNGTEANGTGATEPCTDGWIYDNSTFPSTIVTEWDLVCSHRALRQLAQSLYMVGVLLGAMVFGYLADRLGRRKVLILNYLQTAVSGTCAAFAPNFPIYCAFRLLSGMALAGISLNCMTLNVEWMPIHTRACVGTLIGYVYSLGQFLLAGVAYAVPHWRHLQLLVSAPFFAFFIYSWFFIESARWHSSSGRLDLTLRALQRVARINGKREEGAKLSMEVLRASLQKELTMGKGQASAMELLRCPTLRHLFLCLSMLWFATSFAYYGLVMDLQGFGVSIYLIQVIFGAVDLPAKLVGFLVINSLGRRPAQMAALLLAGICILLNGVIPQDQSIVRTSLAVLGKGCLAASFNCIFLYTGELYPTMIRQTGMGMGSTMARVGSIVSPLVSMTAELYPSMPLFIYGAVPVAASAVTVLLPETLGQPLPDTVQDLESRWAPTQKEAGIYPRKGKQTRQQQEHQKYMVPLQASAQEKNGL
Recorded metric: IC50 (µM)
Unit µM implied. Number only.

Task item: Could you please provide reported IC50 for CCCCCCCCCCCCCCC(=O)O [Pentadecanoic acid] ? Thanks!
Reply: 103
